Source: patent US10168342B2

Item-by-item account of SILAC ratio, Dhrs1
- TARGET_ENTITY: AEA-DA lipid probe targets in Neuro2a cells (Mus musculus, UniProt Q99L04)
- Sequence (Q99L04 whole entry): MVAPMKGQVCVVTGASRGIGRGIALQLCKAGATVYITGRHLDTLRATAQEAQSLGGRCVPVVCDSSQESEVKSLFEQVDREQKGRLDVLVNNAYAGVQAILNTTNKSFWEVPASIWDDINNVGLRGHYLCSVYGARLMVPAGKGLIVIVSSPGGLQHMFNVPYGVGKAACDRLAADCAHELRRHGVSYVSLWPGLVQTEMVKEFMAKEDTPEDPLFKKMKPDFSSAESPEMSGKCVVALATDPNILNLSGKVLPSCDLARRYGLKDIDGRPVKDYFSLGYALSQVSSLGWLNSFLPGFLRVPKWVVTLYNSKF
- CONDITION_PARAMETERS: competitor 25 μM

COMPOUND: C=CCN(C)CCCCCCOc1ccc(C(=O)c2ccc(Br)cc2)c(F)c1 [Ro 48-8071, reference compound]
TARGET_ENTITY: AEA-DA lipid probe targets in Neuro2a cells (Mus musculus, UniProt Q99L04)
SILAC ratio, Dhrs1: 9.5
//
COMPOUND: CN1CCN(C(=O)c2[nH]c3ccc([N+](=O)[O-])cc3c2-c2ccccc2)CC1
TARGET_ENTITY: AEA-DA lipid probe targets in Neuro2a cells (Mus musculus, UniProt Q99L04)
SILAC ratio, Dhrs1: 1.8
//
COMPOUND: CN1CCN(C(=O)c2c(-c3ccccc3)c3cc([N+](=O)[O-])ccc3n2C)CC1
TARGET_ENTITY: AEA-DA lipid probe targets in Neuro2a cells (Mus musculus, UniProt Q99L04)
SILAC ratio, Dhrs1: 2.7
//
COMPOUND: O=C(/C=C/c1cccnc1)NCCCCC1CCN(C(=O)c2ccccc2)CC1 [FK-866, reference compound]
TARGET_ENTITY: AEA-DA lipid probe targets in Neuro2a cells (Mus musculus, UniProt Q99L04)
SILAC ratio, Dhrs1: 8.0
